target: T1, human CD71 extracellular domain (human, UniProt P02786 89-760); assay: primary ELISA screen, RLU on human CD71-ECD over RLU on HSA
T1 construct: also called hCD71; human CD71-ECD
T1 sequence (P02786 89-760): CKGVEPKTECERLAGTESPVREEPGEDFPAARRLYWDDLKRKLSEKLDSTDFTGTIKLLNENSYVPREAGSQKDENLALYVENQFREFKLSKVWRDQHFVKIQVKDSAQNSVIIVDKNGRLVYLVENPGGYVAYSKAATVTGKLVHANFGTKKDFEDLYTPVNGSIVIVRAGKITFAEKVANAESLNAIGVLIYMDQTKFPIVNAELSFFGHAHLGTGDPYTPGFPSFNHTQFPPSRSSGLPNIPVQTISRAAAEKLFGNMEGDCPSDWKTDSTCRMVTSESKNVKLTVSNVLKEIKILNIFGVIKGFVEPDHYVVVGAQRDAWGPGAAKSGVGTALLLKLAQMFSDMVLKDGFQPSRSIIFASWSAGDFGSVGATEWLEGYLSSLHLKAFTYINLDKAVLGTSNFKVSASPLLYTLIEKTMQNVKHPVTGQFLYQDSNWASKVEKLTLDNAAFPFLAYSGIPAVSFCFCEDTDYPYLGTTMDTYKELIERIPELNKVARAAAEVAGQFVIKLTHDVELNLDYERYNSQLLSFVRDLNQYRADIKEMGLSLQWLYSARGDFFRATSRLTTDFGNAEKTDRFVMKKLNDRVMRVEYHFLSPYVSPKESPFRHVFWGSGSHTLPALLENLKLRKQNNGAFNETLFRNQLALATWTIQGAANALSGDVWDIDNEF
List of hCD71:HSA values.
Lab book: enter the figure in ratio, no units written.

Record excerpt, results attached:
GET /value?item= CD71-binding FN3 domain of SEQ ID NO: 336 (designed binder, not shown: C-terminal poly-histidine tag added to each FN3 domain) MSLPAPKNLVVSRVTEDSARLSWTAPDAAFDSFNIMYHEHYDNGEAIVLTVPGSERSYDLTGLKPGTEYSVVINGVKGGPHSAPLSAIFTT &field=hCD71:HSA returns 68

The reported hCD71:HSA of the binder CD71-binding FN3 domain of SEQ ID NO: 341 (designed binder, not shown: C-terminal poly-histidine tag added to each FN3 domain) MSLPAPKNLVVSRVTEDSARLSWTAPDAAFDSFFIGYLEPQPPGEAIELYVPGSERSYDLTGLKPGTEYNVTIQGVKGGFPSLPLVAIFTT was 92

New cases:
Field hCD71:HSA (entry CD71-binding FN3 domain of SEQ ID NO: 335 (designed binder, not shown: C-terminal poly-histidine tag added to each FN3 domain) MSLPAPKNLVVSRVTEDSARLSWTAPDAAFDSFFIGYLEPQPPGEAIDLYVPGSERSYDLTGLKPGTEYNVTIQGVKGGFPSLPLVATFTT ) reads 93

Value of hCD71:HSA reported for the binder CD71-binding FN3 domain of SEQ ID NO: 339 (designed binder, not shown: C-terminal poly-histidine tag added to each FN3 domain) MSLPAPKNLVVSRVTEDSARLSWTAPDAAFDSFEIGYWEMSYYGEAIVLTVPGSERSYDLTGLKPGTEYGVSIGGVKGGRWSLPLSAIFTT is 303

Noted for CD71-binding FN3 domain of SEQ ID NO: 342 (designed binder, not shown: C-terminal poly-histidine tag added to each FN3 domain) MSLPAPKNLVVSRVTEDSARLSWTAPDAAFDSFFIGYLEPQPPGEAIVLTVPGSERSYDLTGLKPGTEYNVTIQGVKGGFPSEPLIANFTT : its hCD71:HSA reads 10

Lab book: hCD71:HSA of CD71-binding FN3 domain of SEQ ID NO: 338 (designed binder, not shown: C-terminal poly-histidine tag added to each FN3 domain) MSLPAPKNLVVSRVTEDSARLSWTAPDAAFDSFEIGYFENLYLGEAIVLTVPGSERSYDLTGLKPGTEYCVYICGVKGGRDSMPLSAIFTT noted as 57

Per the record, CD71-binding FN3 domain of SEQ ID NO: 345 (designed binder, not shown: C-terminal poly-histidine tag added to each FN3 domain) MSLPAPKNLVVSRVTEDSAHLSWTAPDAAFDSFEIGYFENDYFGEAIVLTVPGSERSYDLTGLKPGTEYVVFIGGVKGGKWSAPLSAIFTT has hCD71:HSA of 108

Item: CD71-binding FN3 domain of SEQ ID NO: 340 (designed binder, not shown: C-terminal poly-histidine tag added to each FN3 domain) MSLPAPKNLVVSRVTEDSSRLSWTAPDAAFDSFEIGYFENLYLGEAIVLTVPGSERSYDLTGLKPGTEYWVQIGGVKGGNWSAPLSAIFTT | hCD71:HSA: 106

Item: CD71-binding FN3 domain of SEQ ID NO: 343 (designed binder, not shown: C-terminal poly-histidine tag added to each FN3 domain) MSLPAPKNLVVSRVTEDSARLSWTAPDAAFDSFFIGYLEPQPPGEAIALWVPGSERSYDLTGLKPGTEYNVTIQGVKGGFPSEPLVATFTT | hCD71:HSA: 172
